From: paper PMC9781010

Exercise: for every item that follows, state its recorded IC50.
# Target entity: PL^pro (SARS-CoV-2) (Severe acute respiratory syndrome coronavirus 2)
# Test details: biochemical
# Type: biochemical
# Settings: cell-free cleavage of PL^pro, fluorogenic substrate; read-out: IC50 Value
Provide a numeric answer, followed by its unit.

*Q* Requested field: IC50. Item: Oc1cc(O)cc(Oc2c(O)cc3c(c2O)Oc2cc(Oc4c(O)cc(O)cc4O)c(O)c(O)c2O3)c1 [Diphlorethohydroxycarmalol]
*A* 6.64 µM

*Q* Requested field: IC50. Item: "Oc1cc(O)cc(Oc2cc(O)c(Oc3c(O)cc(O)cc3Oc3cc(O)c(Oc4cc(O)cc(O)c4Oc4cc(O)cc(O)c4Oc4cc(O)cc(O)c4Oc4cc(O)c(Oc5c(O)cc(O)cc5Oc5c(O)cc(Oc6c(O)cc(Oc7c(O)cc(Oc8c(O)cc(Oc9c(O)cc(Oc%10c(O)cc(Oc%11c(O)cc(O)cc%11O)cc%10O)cc9O)cc8O)cc7O)cc6O)cc5O)c(O)c4)c(O)c3)c(O)c2)c1"
*A* 1.4 µM

*Q* Requested field: IC50. Item: "Oc1cc(O)c(Oc2cc(O)cc(O)c2-c2c(O)cc(O)cc2Oc2c(O)cc(O)cc2Oc2c(O)cc(O)c3c2Oc2c(O)cc(O)cc2O3)c(O)c1"
*A* 19.8 µM
